molecular target: Human PD-L1/PD-1 (Homo sapiens, UniProt Q9NZQ7); construct: made in house; host or cells: HEK293T; experiment: HTRF PD-1-Ig/PD-L1-His binding assay (human PD-L1); conditions: cluster symbol; read-out: HTRF IC50 cluster
Sequence (Q9NZQ7 with tags, fused parts or gaps): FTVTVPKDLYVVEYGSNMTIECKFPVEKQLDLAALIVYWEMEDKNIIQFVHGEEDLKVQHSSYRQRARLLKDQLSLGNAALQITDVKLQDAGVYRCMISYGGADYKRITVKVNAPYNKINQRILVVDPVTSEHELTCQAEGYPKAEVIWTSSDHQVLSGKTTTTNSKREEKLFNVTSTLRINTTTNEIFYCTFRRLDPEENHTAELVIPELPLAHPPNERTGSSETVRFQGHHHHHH
Positions of bridges follow the written chain, without caps; N, C: chain ends. Non-standard residues stand in square brackets, D forms with d. Residues, ends and D or L forms follow the SMILES beside them. cisHyp = O=C(O)[C@@H]1C[C@H](O)CN1; NMeF = CN[C@@H](Cc1ccccc1)C(=O)O; dNMeE = CN[C@H](CCC(=O)O)C(=O)O; NMeNle = CCCC[C@H](NC)C(=O)O; dPip = O=C(O)[C@H]1CCCCN1; Dab = NCC[C@H](N)C(=O)O; Dap = NC[C@H](N)C(=O)O
Catalogue of IC50 readings, one per entry.

CCCC[C@H]1C(=O)N(C)[C@H](CCC(=O)O)C(=O)N[C@@H](CC(N)=O)C(=O)N[C@@H](C(C)C)C(=O)N(C)[C@@H](Cc2ccccc2)C(=O)N[C@@H](Cc2ccc(O)cc2)C(=O)N2CCCC[C@@H]2C(=O)N[C@@H](Cc2c[nH]c3ccccc23)C(=O)N[C@@H](Cc2ccc(O)cc2)C(=O)N[C@@H](CCCCN)C(=O)N[C@H](C(=O)NCC(N)=O)CSCC(=O)N[C@@H](Cc2ccccc2)C(=O)N(C)[C@@H](Cc2ccccc2)C(=O)N1C [Example 3593] ({CH2CO}-F[NMeF][NMeNle][dNMeE]NV[NMeF]Y[dPip]WYKCG-NH2; thioether N-13): 0.385 to 6.74 nM

query: Consider the compound shown here: CCCC[C@H]1C(=O)N(C)[C@@H](CCCC)C(=O)N[C@@H](C)C(=O)N[C@H](C(=O)NCC(N)=O)CSCC(=O)N[C@@H](Cc2ccc(O)cc2)C(=O)N2CCC[C@H]2C(=O)N[C@@H](CC(=O)O)C(=O)N2CCC[C@H]2C(=O)N[C@@H](CN)C(=O)N[C@@H](CC(C)C)C(=O)N2C[C@@H](O)C[C@H]2C(=O)N[C@@H](Cc2c[nH]c3ccccc23)C(=O)N[C@@H](CCN)C(=O)N[C@@H](Cc2c[nH]c3ccccc23)C(=O)N1C [Example 1150] ({CH2CO}-YPDP[Dap]L[cisHyp]W[Dab]W[NMeNle][NMeNle]ACG-NH2; thioether N-14) What is its recorded IC50?
result: 0.385 to 6.74 nM
